Form field: melting point (one value per entry).

Asked: Look up melting point: CC(C)(C)SC1CN(C(N)=O)CC1NS(=O)(=O)c1ccc(Oc2ccccc2)cc1 (centres undefined)
Given back: 132 to 133 °C

###

measure: melting point

These solved cases illustrate the format of a correct answer.
[[record]]
compound = "CCOC(=O)c1ccc2[nH]c(C)c(SC)c2c1"
measure = "melting point"
reported_result = "127 to 130 °C"

[[record]]
compound = "O=C(NC(=O)c1c(F)cccc1F)Nc1cc(Cl)c(OC(F)(F)C(F)Cl)c(Cl)c1 (configuration not stated)"
measure = "melting point"
reported_result = "178 to 180 °C"

[[record]]
compound = "CC(C)(C)OC(=O)NCCNC(=O)c1n[nH]cc1-c1cccc(F)c1"
measure = "melting point"
reported_result = "175 to 176 °C"


Asked: Return reported melting point; argument: O=C(O)c1ccc(-c2c(-c3ccccc3)[nH]c3ccccc23)cc1
Given back: 252 to 253 °C

Asked: Need melting point of c1ccc(-c2ccc3nc(-c4ccccc4)oc3n2)cc1 , thanks.
Given back: 151 to 152 °C

Asked: Give the measured melting point of C=C(Cl)CS(=O)(=O)NC(=O)c1nc(OC)cc(OC)n1 .
Given back: 125 to 130 °C

Asked: Any idea what melting point was measured for CN1CC[C@@H]2CC(=O)c3cc4c(cc3[C@@H]2C1)OCO4 (relative stereo) ?
Given back: > 250 °C

###

measure: melting point

Reference set (4 entries):
[[record]]
smiles_structure = "N#Cc1cc(Oc2ccc3c(C(=O)Nc4cccc(C(F)(F)F)c4)cccc3c2)ncn1"
reported_result = "167 °C"

[[record]]
smiles_structure = "CC(C)NS(=O)(=O)NC(C)C"
reported_result = "98 to 101 °C"

[[record]]
smiles_structure = "O=c1c(-c2ccc(Cl)cc2)nc2ccccc2n1CC(F)F"
reported_result = "133 to 136 °C"

[[record]]
smiles_structure = "Cc1ccc2nc(-c3ccccc3)cc(OCc3ccccc3)c2c1"
reported_result = "139 °C"


Asked: Using the record for O=C(CCl)COc1cccc(C(F)(F)F)c1 , report its melting point.
Given back: 38 to 39 °C

Asked: Look up melting point: CCCCOC(=O)Cc1nc(-c2ccc(Cl)cc2)oc1-c1ccsc1
Given back: 79 to 81 °C

Asked: Item COc1cccc2c1C(=O)c1c(OC)cc(-c3nnn[nH]3)cc1C2=O has what recorded melting point?
Given back: 262 to 264 °C

Asked: Entry COC(=O)c1cn(-c2ccc(O)cc2C)c(C2CCNCC2)cc1=O has what melting point?
Given back: 226 to 228 °C

Asked: Form field: reported melting point of CCn1c(=O)c2c(nc(/C=C/c3ccc4c(c3)OCO4)n2C)n(CC)c1=O
Given back: 219 to 220 °C

Asked: Entry C=C1N(CCC)C(=O)OC12CCN(CC=C(c1ccccc1)c1ccccc1)CC2 has what melting point?
Given back: 126 to 127 °C

###

measure: melting point

Use the examples below as a reference point.
[[record]]
compound = "CCN(CC)C(=O)n1cnc(S(=O)(=O)C(F)(F)Br)n1"
measure = "melting point"
reported_result = "74 to 75 °C"

[[record]]
compound = "O=C1NCC(CCc2ccccc2Br)O1 (centres undefined)"
measure = "melting point"
reported_result = "93.5 to 94.5 °C"

[[record]]
compound = "Nc1nc2ccccc2c2c1ncn2CCOCC#Cc1ccccc1"
measure = "melting point"
reported_result = "196 to 197 °C"

[[record]]
compound = "CCOCc1nc2cnc3cc(OCc4ccccc4)ccc3c2n1CC1COC(C)(C)O1 (centres undefined)"
measure = "melting point"
reported_result = "110 to 111 °C"


Asked: Given COc1ccc(C(=O)Nc2ccccc2C(=O)NCCCC(=O)O)c(O)c1 , state its recorded melting point.
Given back: 201 to 203 °C

Asked: Would you mind telling me what melting point value was observed for COc1ccc(CN(C)CCc2ccc(NC(=O)c3cccc4c(=O)c5c(OC)ccc(OC)c5[nH]c34)cc2)cc1OC ?
Given back: 196 °C

Asked: Which melting point value is on record for COC(=O)CC[C@@H](NC(=O)[C@H](COCc1ccccc1)NC(=O)OC(C)(C)C)C(N)=O ?
Given back: 103 to 104 °C

Asked: I would be grateful if you could share the reported melting point for Nc1c(Cl)cc(C(O)CNCCCCOCCSCCc2ccccc2)cc1Cl (centres undefined) .
Given back: 74 to 77 °C

Asked: What measured melting point goes with Cc1c(NC(=O)c2ccc(OC[C@@H]3CCCO3)cc2)ccc2[nH]c(CNCC3CCOCC3)cc12 ?
Given back: 166 to 167 °C

###

Measured melting point, listed per entry for reference.

Below, each entry is followed by its recorded melting point result.
[[record]]
molecule = "CC(C)n1cc(-c2ccc(F)cc2)nn1"
measure = "melting point"
reported_result = "54 to 55 °C"

[[record]]
molecule = "CSc1cccc(-c2ccccc2NC(=N)N(C)C)c1"
measure = "melting point"
reported_result = "94 to 95 °C"

[[record]]
molecule = "CCCOc1cc2nc(Cl)nc(Cl)c2cc1OC"
measure = "melting point"
reported_result = "118 to 120 °C"

[[record]]
molecule = "CCOC(=O)C(C)Oc1ccc(Oc2cnc3cc(Cl)ccc3n2)cc1F (stereo unspecified)"
measure = "melting point"
reported_result = "110 °C"

[[record]]
molecule = "COc1c(C)cc(N)c(CS(=O)c2nc3ccccc3[nH]2)c1C (stereo unspecified)"
measure = "melting point"
reported_result = "150 to 155 °C"

[[record]]
molecule = "N#Cc1ccc(OCCCC(=O)O)cc1"
measure = "melting point"
reported_result = "210 °C"

[[record]]
molecule = "CN(C)C=C1Cc2c(Cl)cccc2C1=O"
measure = "melting point"
reported_result = "148 to 150 °C"

[[record]]
molecule = "Cc1ccc(-c2c3c(cc4ccc(O)cc24)-c2ccc(O)cc2CO3)cc1"
measure = "melting point"
reported_result = "238 to 240 °C"

[[record]]
molecule = "CCCCCCCC1CCC(C(C#N)Cc2ccc(Br)cc2)CC1 (stereo unspecified)"
measure = "melting point"
reported_result = "60 to 62 °C"

[[record]]
molecule = "CN1CCC(C(=O)Nc2cccc3nc(NC4CCc5ccccc54)ccc23)CC1 (stereo unspecified)"
measure = "melting point"
reported_result = "197 °C"


Asked: Look up melting point for this molecule: O=C1NC(=O)c2ccccc2/C1=C/Nc1ccc(CCN2CCCC2)cc1
Given back: 224 to 225 °C

Asked: Fill blank: measured melting point of the molecule COc1cc(COc2nn(-c3ccccc3)cc2CC(=O)O)ccc1OCc1nc(-c2ccco2)oc1C is ____.
Given back: 179 to 180 °C

Asked: State the recorded melting point for this entry: COC1=CCC(Br)(OC)C=C1C(=O)C(Br)CCC1CCCCC1 (stereo unspecified)
Given back: 96 to 104 °C

###

measure: melting point

Example compounds with recorded melting point:
[[record]]
compound = "Cc1c(Cl)cc(C(C)C)c(-c2c(C(C)C)cc(Cl)c(C)c2O)c1O"
measure = "melting point"
reported_result = "98 °C"

[[record]]
compound = "CNC(=O)c1ccccc1CCc1ccc(Br)cc1"
measure = "melting point"
reported_result = "138 to 141 °C"

[[record]]
compound = "Cc1nc2n(c(=O)c1CCN1CCC(C(O)c3ccc(F)cc3)CC1)CCS2 (centres undefined)"
measure = "melting point"
reported_result = "204 °C"


Asked: Query: melting point; subject: O=C(Nc1ccc(F)cc1)c1ccccc1C(c1ccc(O)cc1)c1ccc(O)cc1
Given back: 122 to 124 °C

Asked: Find the recorded melting point belonging to Cc1cc(SC2=C(O)CC(C3CCCC3)(C3CCCC3)OC2=O)c(C(C)(C)C)cc1NS(=O)(=O)c1ccc(C(F)(F)F)cn1 and report it.
Given back: 127 to 129 °C

Asked: May I ask what melting point has been recorded for CC(C)c1nc(CN2C(=O)C3(COc4cc5c(cc43)OCO5)c3c(-c4ccc(N(C)C)nc4)cccc32)cs1 (centres undefined) ?
Given back: 164 to 165 °C

Asked: What does the data say about its melting point? Entry: CS(=O)(=O)OCCc1ccc(N2CCCC2=O)cc1
Given back: 94 °C

Asked: Returns the measured melting point for the input compound. Input: N#Cc1cc(C(=O)NNC(=O)c2occ(-c3ccccc3)c2-c2ccccc2)ccc1O
Given back: 178 to 179 °C

Asked: What value of measured melting point is listed for OCc1cccc(-n2cccc2)c1Br ?
Given back: 78 to 80 °C

###

Quick reference: melting point of the listed items.

Answered examples (5):
[[record]]
compound = "NC(=O)c1ccc(-c2cccc3cc(Cc4cccc(C(F)(F)F)c4)sc23)cc1"
measure = "melting point"
reported_result = "175 to 176 °C"

[[record]]
compound = "CCCc1c(COc2ccc(-c3nnn(CCCN(C)C)n3)cc2)ccc(C(C)=O)c1O"
measure = "melting point"
reported_result = "89 to 91 °C"

[[record]]
compound = "Nc1ccc(Sc2ccccc2)cc1"
measure = "melting point"
reported_result = "99 °C"

[[record]]
compound = "COc1nc(C)c(C(C)=O)cc1NC(=O)N1CCN(c2cccc(C)c2C)CC1"
measure = "melting point"
reported_result = "173 to 174 °C"

[[record]]
compound = "CN(CC(=O)O)C(=O)CN1CCCC1=O"
measure = "melting point"
reported_result = "178 °C"


Asked: Can you look up the measured melting point of O=C1CCC2CCCCC2N1 (stereo not given) for me?
Given back: 123 to 126 °C

Asked: // returns reported melting point for input O=C1CCC(c2ccccc2)(c2ccccc2)[C@@H]2CN(C(=O)Cc3ccccc3N3CCCC3)C[C@H]12 (racemic)
Given back: 178 °C

Asked: Give the measured melting point of COCCOCCOc1cccc2c1C1(COc3cc4c(cc31)OCCO4)C(=O)N2C (stereo not given) .
Given back: 109 to 110 °C

Asked: Request the reported melting point associated with CCOC(=O)CCCN(C(=O)CN(C(=O)c1ccc(Cl)cc1)c1c(C)cccc1C)c1c(C)cccc1C
Given back: 150 to 151 °C

Asked: For the compound shown here, Cc1cccc(COc2cccnc2NC(=N)Nc2ccc(Cl)cc2)c1F , give the reported melting point.
Given back: 179 to 181 °C
